Consider the following compounds; for each one, report its pIC50.
Biological target: PAF (Canis lupus familiaris, UniProt A0A8I3NSH0)
Construct: followed by 2×10^7 dog platelets; from tissue; host or cells: washed platelets from citrate-treated dog blood
Sequence (A0A8I3NSH0 1-343): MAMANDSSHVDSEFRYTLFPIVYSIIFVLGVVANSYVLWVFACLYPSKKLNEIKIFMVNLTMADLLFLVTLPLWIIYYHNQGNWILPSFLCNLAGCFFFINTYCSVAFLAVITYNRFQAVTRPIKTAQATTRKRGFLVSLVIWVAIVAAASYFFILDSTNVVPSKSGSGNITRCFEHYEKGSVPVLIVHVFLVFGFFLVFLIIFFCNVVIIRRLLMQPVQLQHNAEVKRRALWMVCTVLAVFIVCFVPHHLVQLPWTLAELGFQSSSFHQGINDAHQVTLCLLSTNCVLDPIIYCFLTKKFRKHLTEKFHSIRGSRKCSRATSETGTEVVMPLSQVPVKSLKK
Test: PAF Radioreceptor Binding Assay
Conditions: Table II; dog platelets, 3H-PAF
Protocol: Platelet rich plasma is prepared by centrifugation of citrate-treated dog blood. […] After mixing, incubating for 10 minutes at room temperature, and centrifuging for 1 minute in a Beckman Microfuge B (8000 xg), the pellet is removed by clipping off the tip of the tube, the platelets are solubilized with 200 μl of 50% methanol, and counted in 10 ml of Aquasol. […]
The meaning of pIC50 here: minus log10 of the concentration in molar units.

# assay system PAF (Canis lupus familiaris, UniProt A0A8I3NSH0): give pIC50 of CCCc1c(OCCCCCC(=O)NCCCCc2ccccn2)ccc(C(C)=O)c1O
6.00

Look up and report pIC50, with PAF (Canis lupus familiaris, UniProt A0A8I3NSH0) as system, for CCCc1c(OCCCCCC(=O)NCCCCOc2cccnc2)ccc(C(C)=O)c1O
6.00

Look up and report pIC50, with PAF (Canis lupus familiaris, UniProt A0A8I3NSH0) as system, for CCCc1c(OCC#CCCCC(=O)NCCCCc2cccnc2)ccc(C(C)=O)c1O [drawing 35]
6.22

----------
Task for the reader: assign each of the following compounds its reported inhibition at 1 µM.
Target: TXA2 synthase (Homo sapiens)
Construct: microsomal fractions from human platelets as enzyme source; from tissue; host or cells: microsomal fraction of human platelets
Sequence (P24557 whole entry): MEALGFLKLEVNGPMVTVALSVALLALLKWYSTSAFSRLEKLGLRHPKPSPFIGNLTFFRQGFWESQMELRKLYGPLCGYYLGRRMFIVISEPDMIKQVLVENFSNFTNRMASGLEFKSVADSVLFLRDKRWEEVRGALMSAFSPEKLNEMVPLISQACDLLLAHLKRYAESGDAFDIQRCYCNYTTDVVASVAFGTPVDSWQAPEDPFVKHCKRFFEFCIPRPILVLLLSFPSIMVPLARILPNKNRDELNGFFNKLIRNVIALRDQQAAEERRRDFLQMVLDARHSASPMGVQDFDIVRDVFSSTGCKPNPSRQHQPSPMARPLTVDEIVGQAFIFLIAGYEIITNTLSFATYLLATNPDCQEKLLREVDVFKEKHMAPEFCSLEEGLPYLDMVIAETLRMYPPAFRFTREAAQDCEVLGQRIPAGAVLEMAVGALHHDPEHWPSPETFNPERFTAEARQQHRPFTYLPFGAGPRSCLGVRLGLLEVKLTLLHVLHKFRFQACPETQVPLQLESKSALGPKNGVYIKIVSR
Assay: Thromboxane Synthase Inhibition, In Vitro
Assay type: biochemical
Settings: Table III; at 1 μM (value in parentheses); human platelet microsomes; read-out: TXA2 Synth. Inhib. % at (1 μM)
Reply numerically in %, unit not repeated.

Provide measured inhibition at 1 µM value, entry: CCCc1c(OCCCCCNC(=O)NCCCCc2cccnc2)ccc(C(C)=O)c1O
89

For the compound CCCc1c(OCCC(C)(C)C(=O)NCCCCc2cccnc2)ccc(C(C)=O)c1O , report inhibition at 1 µM.
55

Output measured inhibition at 1 µM for this item: CCCc1c(OCCCC(=O)NC(C)CCCc2cccnc2)ccc(C(C)=O)c1O (centres unmarked)
77

Respond only with inhibition at 1 µM recorded for CCCc1c(OCC(C)CC(=O)NC(C)CCCc2cccnc2)ccc(C(C)=O)c1O (centres unmarked)
78

Quick one: give measured inhibition at 1 µM for CCCc1c(OCCCNC(=O)NCCCCc2cccnc2)ccc(C(C)=O)c1O
93

Tell me its inhibition at 1 µM given CCCc1c(OCCC(C)C(=O)NCCCCc2cccnc2)ccc(C(C)=O)c1O (centres unmarked) as the entry.
70

Provide inhibition at 1 µM value for the following compound: CCCc1c(OCC(C)CC(=O)NCCCCc2cccnc2)ccc(C(C)=O)c1O (centres unmarked)
77

Return value of inhibition at 1 µM for input CCCc1c(OCCCC(=O)NCCCCc2cccnc2)ccc(C(C)=O)c1O , no commentary.
89

----------
For each entry below, report its pIC50 value.
Target: PAF (Canis lupus familiaris)
Construct: followed by 2×10^7 dog platelets; from tissue; host or cells: washed platelets from citrate-treated dog blood
Test: PAF Radioreceptor Binding Assay
Conditions: Table III; dog platelets, 3H-PAF
Just so you know, pIC50 here is -log10 of the concentration in molar units; reply with that number alone.

Given CCCc1c(OCC(C)CC(=O)NC(C)CCCc2cccnc2)ccc(C(C)=O)c1O (stereo not drawn) , respond with its pIC50.
6.00

For the compound CCCc1c(OCCC(C)(C)C(=O)NCCCCc2cccnc2)ccc(C(C)=O)c1O , report pIC50.
6.00

Given CCCc1c(OCCCNC(=O)NCCCCc2cccnc2)ccc(C(C)=O)c1O , respond with its pIC50.
6.15

// provenance: patent US4672066A
